# subjectOfTest: mouse CD38 (Mus musculus)
# Construct: purchased Bio-Techne GmbH 4947-AC
# Sequence (P56528 whole entry): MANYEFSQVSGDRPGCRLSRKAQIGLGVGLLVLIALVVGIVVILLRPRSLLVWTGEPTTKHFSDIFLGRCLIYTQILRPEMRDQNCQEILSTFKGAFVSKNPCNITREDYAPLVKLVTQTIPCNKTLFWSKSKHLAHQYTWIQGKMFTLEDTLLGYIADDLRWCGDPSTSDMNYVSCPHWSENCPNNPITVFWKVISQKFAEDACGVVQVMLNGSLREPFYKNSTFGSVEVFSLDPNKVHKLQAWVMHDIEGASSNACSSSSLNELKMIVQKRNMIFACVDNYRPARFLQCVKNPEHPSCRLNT
# test: NAD+ cyclase activity assay with mouse recombinant CD38 protein (ε-NAD fluorescence)
# Assay type: biochemical
# conditionSummary: 0.6 nM mouse CD38, substrate ε-NAD, 30 min preincubation, fluorescence 300/410 nm
pIC50: −log10 of the molar value.
observedProperty: pIC50

compound: O=C(N[C@H]1CC[C@@H](OCCC(F)F)CC1)c1ccc2c(c1)-c1cncn1CCO2 [Compound 77A]
measuredResult: 8.00 to 9.00
--
compound: CC1(F)CC(NC(=O)c2cc(F)c3c(c2)-c2cncn2CCO3)C1 (stereo not drawn) [Compound 138A]
measuredResult: 8.00 to 9.00
--
compound: CC(=O)N[C@H]1CC[C@H](NC(=O)c2ccc3c(c2)-c2cncn2CCO3)CC1 [Compound 60A]
measuredResult: 8.00 to 9.00
